Data provenance is PubChem BioAssay AID743417.

- System: Clone20 osteoblast Shn3 3'UTR firefly luciferase, 24 h
- assayProcedure: Shn3 3'UTR reporter inhibitors, dose response, cell-based, Clone20 osteoblasts, luminescence, dry powder, set 2 (AID 743417)
Records with an inconclusive call do not appear.
recordedMetric: AC50

Record summary for CN(CC(=O)Nc1ccccc1Cl)C(=O)c1cccc(S(=O)(=O)N2CCN(Cc3ccccc3)CC2)c1 : reported AC50 = 3.47 µM

// sample COC(=O)C1=C(c2ccc(OCc3ccccc3)cc2)C[C@@H]2CC[C@H]1N2C(=O)NCc1ccc(OC)c(OC)c1 , its AC50 was 19.7 µM

Per the record, COC(=O)c1ccc(NC(=O)c2nc(S(=O)(=O)Cc3cccc(C)c3)ncc2Cl)cc1 has AC50 of 1.35 µM

The reported AC50 of the compound CC(=O)N1c2ccc(S(=O)(=O)N3CCC(C(=O)N4CCN(c5cc(Cl)ccc5C)CC4)CC3)cc2CC1C (stereo not given) was 3.1 µM

AC50 in this record for CCOc1ccc(N2C(=O)CC(Sc3nnnn3-c3ccccc3)C2=O)cc1 (stereo not given) : 11.5 µM

Quick note, AC50 for Cc1ccc(S(=O)(=O)CC2CSc3nc4ccccc4n32)cc1 (stereo not given) landed at 0.347 µM

Short answer for O=C(N[C@@H]1C/C=C\C[C@H](CC(=O)N(CCO)Cc2ccccc2)C(=O)NC[C@@H](c2ccccc2)OC1=O)OCC1c2ccccc2-c2ccccc21 : AC50 was 4.5 µM

Entry CC(C)c1nc(SCC(=O)Nc2cccc(C(F)(F)F)c2)c2c(=O)n(C)c(=O)n(C)c2n1 — recorded AC50 = 2.7 µM

Quick note, AC50 for CC(=O)Oc1ccc(OC(C)=O)c(SCCCCCCl)c1 landed at 2.58 µM

// field: AC50; key: CN(Cc1nccn1C)C(=O)c1cc(COc2ccc3ncccc3c2)on1 ; value = 6.97 µM

For this compound ( CC(C)C[C@@H](CN1CCCC1CN1C(=S)NC[C@@H]1Cc1ccc(O)cc1)N1C[C@H](Cc2ccc(O)cc2)N(CC2CCCCCC2)C1=S (stereo not given in full) ), measured AC50 is 18.8 µM

Data point: CC(C)CC(NC(=O)c1ccc(Cl)cc1)C(=O)OCC(=O)c1ccc2c(c1)NC(=O)CO2 (stereo not given) ; AC50 = 4.01 µM

For CC(C)(C)c1nc(NCCN2CCOCC2)c2nnn(Cc3ccccc3Cl)c2n1 the compound record lists AC50 as 8.85 µM

According to the records, this compound CC(CCCC(C)(C)O)NC(=O)c1cc(COc2ccc3ncccc3c2)on1 (stereo not given) displays AC50 of 1.75 µM

Looking up Cc1cccc(NC(=O)c2nc(S(=O)(=O)Cc3ccccc3)ncc2Cl)c1 , I see its AC50 listed as 2.66 µM

----------
- System: Clone20 osteoblast Shn3 3'UTR firefly luciferase, 24 h
- assayProcedure: Shn3 3'UTR reporter inhibitors, dose response, cell-based, Clone20 osteoblasts, luminescence, dry powder, set 2 (AID 743417)
Records with an inconclusive call do not appear.
recordedMetric: AC50

Notebook: O=c1[nH]c2ccccc2n1C1CCN(C(c2cccs2)c2nnnn2Cc2ccccc2)CC1 (centres undefined) , AC50 read as 2.98 µM

# AC50 (compound: Cc1ccc(NC(=O)C2CCN(S(=O)(=O)c3ccc4c(c3)NC(=O)C(C)S4)CC2)cc1C (centres undefined) ) is 2.61 µM

Looking up CCOC(=O)C1CCCN(S(=O)(=O)c2ccc(S(=O)(=O)N(CC)CC)cc2)C1 (centres undefined) , I see its AC50 listed as 0.512 µM

Notebook: Cc1cc(Nc2cccc(Cl)c2)nc(NCc2ccccc2)n1 , AC50 read as 1.64 µM
